Values from patent US20140163026A1

Measurement record for PAK3 (Homo sapiens, UniProt O75914); quantity recorded: IC50.

INSERT INTO measurements (compound, measurement_kind, readout_value) VALUES
  ('CCn1c(=O)c(-c2ccc(-c3cccnc3)cc2Cl)cc2cnc(Nc3ccc(C4CCN(C)CC4)cc3)nc21', 'IC50', '< 0.05 µM'),
  ('CCn1c(=O)c(-c2ccc(-c3ccn[nH]3)cc2)cc2cnc(Nc3ccc(N4CCN(C)CC4)cc3)nc21', 'IC50', '0.5 to 5 µM'),
  ('CCn1c(=O)c(-c2ccc(-c3cccnc3C)cc2Cl)cc2cnc(Nc3ccc(CCN(C)C)cc3)nc21', 'IC50', '0.05 to 0.5 µM'),
  ('Cc1ncccc1-c1cc(Cl)c(-c2cc3cnc(Nc4ccc(C5CCN(C)CC5)cc4)nc3n(C)c2=O)cc1F', 'IC50', '0.5 to 5 µM');

IN: State recorded IC50 with PAK3 (Homo sapiens, UniProt O75914), entry "Cc1cnc(-c2ccc(-c3cc4cnc(Nc5ccc(C6CCN(C)CC6)cc5)nc4n(C)c3=O)c(C)c2)s1" , no comment.
Sequence (O75914 whole entry): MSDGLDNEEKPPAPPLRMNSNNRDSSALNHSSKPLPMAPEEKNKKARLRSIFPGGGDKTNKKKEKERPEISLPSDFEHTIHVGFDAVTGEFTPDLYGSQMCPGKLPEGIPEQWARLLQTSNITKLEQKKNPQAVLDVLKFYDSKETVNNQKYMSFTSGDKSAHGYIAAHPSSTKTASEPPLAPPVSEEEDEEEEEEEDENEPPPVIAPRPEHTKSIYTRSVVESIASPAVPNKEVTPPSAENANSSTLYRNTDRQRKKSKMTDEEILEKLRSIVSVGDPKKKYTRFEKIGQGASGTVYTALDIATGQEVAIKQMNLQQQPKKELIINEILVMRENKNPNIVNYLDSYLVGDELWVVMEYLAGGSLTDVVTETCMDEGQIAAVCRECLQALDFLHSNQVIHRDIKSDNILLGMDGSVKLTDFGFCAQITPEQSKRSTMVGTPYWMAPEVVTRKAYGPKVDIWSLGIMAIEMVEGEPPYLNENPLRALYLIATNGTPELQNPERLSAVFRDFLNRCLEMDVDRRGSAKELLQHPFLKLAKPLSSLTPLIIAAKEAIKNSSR
OUT: 0.05 to 0.5 µM

IN: Given "CCn1c(=O)c(-c2ccc(-c3cccnc3)cc2Cl)cc2cnc(Nc3ccccc3)nc21" , report its IC50 on PAK3 (Homo sapiens, UniProt O75914).
OUT: 0.5 to 5 µM

IN: Retrieve IC50 on PAK3 (Homo sapiens, UniProt O75914); query CCn1c(=O)c(-c2ccc(-c3cncnc3)cc2Cl)cc2cnc(Nc3ccc(C4CN(C)CCO4)cc3)nc21 (centres unmarked)
OUT: < 0.05 µM

IN: Report value: IC50, system: PAK3 (Homo sapiens, UniProt O75914), compound: "CCn1c(=O)c(-c2ccc(-c3ncc(C)s3)cc2C)cc2cnc(Nc3ccc(C4CCN(C)CC4)cc3)nc21"
OUT: 0.05 to 0.5 µM

====

Target: PAK1 (Homo sapiens)
Sequence (Q13153 whole entry): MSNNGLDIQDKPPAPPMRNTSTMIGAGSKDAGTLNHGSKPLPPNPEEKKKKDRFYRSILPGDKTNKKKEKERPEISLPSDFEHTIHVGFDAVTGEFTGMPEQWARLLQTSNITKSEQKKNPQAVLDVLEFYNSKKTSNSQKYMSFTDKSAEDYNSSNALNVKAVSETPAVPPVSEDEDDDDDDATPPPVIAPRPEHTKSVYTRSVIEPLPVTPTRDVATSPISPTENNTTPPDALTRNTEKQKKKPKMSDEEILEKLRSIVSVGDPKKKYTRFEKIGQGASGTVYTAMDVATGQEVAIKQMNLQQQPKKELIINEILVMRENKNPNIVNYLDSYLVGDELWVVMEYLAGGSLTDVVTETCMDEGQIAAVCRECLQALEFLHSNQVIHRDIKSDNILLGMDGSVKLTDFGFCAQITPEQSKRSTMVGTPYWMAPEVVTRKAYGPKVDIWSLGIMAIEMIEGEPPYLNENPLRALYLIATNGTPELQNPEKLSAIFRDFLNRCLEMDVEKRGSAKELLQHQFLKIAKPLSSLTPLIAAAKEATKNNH
pIC50: −log10 of the molar value.
Measurement Kind: pIC50

INSERT INTO measurements (molecule, readout_value) VALUES
  ('CCn1c(=O)c(-c2ccc(-c3ccc(NC(C)=O)nc3)cc2Cl)cc2cnc(Nc3ccc(N4CCN(C)CC4)cc3)nc21', '< 5.30');

Next, consider the following molecule.
IN: Under PAK1 (Homo sapiens): report pIC50 of "CCn1c(=O)c(-c2ccc(-c3cn[nH]c3)cc2Cl)cc2cnc(Nc3ccc(N4CCN(C)CC4)cc3)nc21" .
OUT: 6.30 to 7.30

====

Molecular target: UniProtKB O75914
pIC50: −log10 of the molar value.
The entries below come with measured pIC50 values attached.

# example entries with known answers
INSERT INTO measurements (smiles_entry, readout_value) VALUES
  ('CCn1c(=O)c(-c2ccc(-c3ccnn3C)cc2)cc2cnc(Nc3ccc(N4CCN(C)CC4)cc3)nc21', '5.30 to 6.30'),
  ('CCn1c(=O)c(-c2ccc(-c3ccsc3)cc2Cl)cc2cnc(Nc3ccc(N4CCN(C)CC4)cc3)nc21', '> 7.30'),
  ('CCn1c(=O)c(-c2ccc(-c3cnc(C)o3)cc2Cl)cc2cnc(Nc3ccc(C4CCN(C)CC4)cc3)nc21', '6.30 to 7.30');

Turning now to a further record.
IN: Supply pIC50 measured with UniProtKB O75914 for "Cc1ncc(-c2ccc(-c3cc4cnc(Nc5ccc(C6CCN(C)CC6)cc5)nc4n(C)c3=O)c(Cl)c2)s1" .
OUT: 6.30 to 7.30

====

Here we list molecules with their recorded IC50 when tested on PAK4 (Homo sapiens, UniProt O96013).
Sequence (O96013 whole entry): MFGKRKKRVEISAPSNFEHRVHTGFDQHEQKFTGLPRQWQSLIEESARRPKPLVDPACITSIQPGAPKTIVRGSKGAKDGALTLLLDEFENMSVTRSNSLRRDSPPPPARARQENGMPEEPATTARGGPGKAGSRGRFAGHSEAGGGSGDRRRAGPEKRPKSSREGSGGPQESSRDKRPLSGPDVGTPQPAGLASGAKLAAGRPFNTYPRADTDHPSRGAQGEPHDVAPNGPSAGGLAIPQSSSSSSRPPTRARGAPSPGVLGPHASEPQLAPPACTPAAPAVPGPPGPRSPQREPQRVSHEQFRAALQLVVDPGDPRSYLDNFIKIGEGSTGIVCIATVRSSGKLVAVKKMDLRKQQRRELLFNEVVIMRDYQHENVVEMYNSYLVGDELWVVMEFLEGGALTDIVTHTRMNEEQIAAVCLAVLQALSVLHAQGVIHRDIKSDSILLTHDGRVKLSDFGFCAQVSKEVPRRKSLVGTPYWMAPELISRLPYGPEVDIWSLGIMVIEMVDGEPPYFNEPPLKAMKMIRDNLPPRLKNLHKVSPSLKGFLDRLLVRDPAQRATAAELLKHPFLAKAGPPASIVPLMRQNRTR

// worked examples, IC50 included
INSERT INTO results (molecule, measurement_target, readout_value) VALUES
  ('CCn1c(=O)c(-c2ccc(-c3ccccc3F)cc2Cl)cc2cnc(Nc3ccc(C4CCN(C)CC4)cc3)nc21', 'PAK4 (Homo sapiens, UniProt O96013)', '0.5 to 5 µM'),
  ('CCn1c(=O)c(-c2ccc(-c3ccc(C)nc3)cc2Cl)cc2cnc(Nc3ccc(C4CCN5CCCC5C4)cc3)nc21 (centres unmarked)', 'PAK4 (Homo sapiens, UniProt O96013)', '0.5 to 5 µM'),
  ('CCn1c(=O)c(-c2ccc(-c3noc(C)n3)cc2Cl)cc2cnc(Nc3ccc(N4CCN(C)CC4)cc3)nc21', 'PAK4 (Homo sapiens, UniProt O96013)', '0.5 to 5 µM'),
  ('CCn1c(=O)c(-c2ccc(-c3ccc(C)nc3)cc2Cl)cc2cnc(Nc3ccc(CCN(C)C)cc3)nc21', 'PAK4 (Homo sapiens, UniProt O96013)', '0.5 to 5 µM');

IN: State its IC50 for this molecule: "CCn1c(=O)c(-c2ccc(-c3scnc3C)cc2Cl)cc2cnc(Nc3ccc(N4CCN(C)CC4)cc3)nc21"
OUT: ≥ 5 µM

IN: Look up IC50 of "CCn1c(=O)c(-c2ccc(-c3cn[nH]c3)cc2)cc2cnc(Nc3ccc(N4CCN(C)CC4)cc3)nc21" and report it.
OUT: ≥ 5 µM

IN: Report measured IC50; entry is "Cc1nccnc1-c1ccc(-c2cc3cnc(Nc4ccc(C5CCN(C)CC5)cc4)nc3n(C)c2=O)c(Cl)c1"
OUT: ≥ 5 µM

IN: Specify IC50 for "CCn1c(=O)c(-c2ccc(-c3cccnc3F)cc2Cl)cc2cnc(Nc3ccc(C4CCN(C)CC4)c(F)c3)nc21" and stop.
OUT: 0.5 to 5 µM

IN: Provide IC50 value for the following molecule: "Cc1ncccc1-c1ccc(-c2cc3cnc(Nc4ccc(C5CCNCC5)cc4)nc3n(C)c2=O)c(Cl)c1"
OUT: ≥ 5 µM

IN: // fetch IC50 given entry "CCn1c(=O)c(-c2ccc(-c3ccnn3C)cc2)cc2cnc(Nc3ccc(N4CCN(C)CC4)cc3)nc21"
OUT: ≥ 5 µM

IN: Please report the measured IC50 for "CCn1c(=O)c(-c2ccc(-c3cncnc3)cc2Cl)cc2cnc(Nc3ccc(N4CCNCC4)c(F)c3)nc21"
OUT: 0.5 to 5 µM

====

pIC50: −log10 of the molar value.
Observed pIC50 for UniProt O96013, reported per entry below.

Example entries and their recorded answers appear below.
INSERT INTO assay_data (compound, readout_value) VALUES
  ('CCn1c(=O)c(-c2ccc(C3CC3)cc2C2CC2)cc2cnc(Nc3ccc(N4CCN(C)CC4)cc3)nc21', '≤ 5.30'),
  ('CN1CCC(c2ccc(Nc3ncc4cc(-c5cc(F)c(-c6cccnc6F)cc5Cl)c(=O)n(C)c4n3)cc2)CC1', '≤ 5.30'),
  ('CCn1c(=O)c(-c2nc(C)sc2C)cc2cnc(Nc3ccc(N4CCN(C)CC4)cc3)nc21', '≤ 5.30'),
  ('CCn1c(=O)c(-c2ccc(-c3cncs3)cc2)cc2cnc(Nc3ccc(N4CCN(C)CC4)cc3)nc21', '≤ 5.30'),
  ('CCN1CCC(c2ccc(Nc3ncc4cc(-c5ccc(-c6cccnc6F)cc5Cl)c(=O)n(CC)c4n3)cc2F)CC1', '5.30 to 6.30'),
  ('CCn1c(=O)c(-c2ccc(-c3cncnc3)cc2Cl)cc2cnc(Nc3ccc(N4CCN(C(C)C)CC4)cc3)nc21', '5.30 to 6.30');

IN: State measured pIC50 of the compound "CCn1c(=O)c(-c2ccc(-c3ccnc(C)c3)cc2Cl)cc2cnc(Nc3ccc(C4CCN(C)CC4)cc3)nc21" with UniProt O96013.
OUT: 5.30 to 6.30

IN: State recorded pIC50 with UniProt O96013, entry "CCn1c(=O)c(-c2ccc(-c3cccnc3C)cc2Cl)cc2cnc(Nc3ccc(CCN(C)C)cc3)nc21" , no comment.
OUT: ≤ 5.30

====

Please consider the recorded pIC50 for PAK2 (PAK65) (Homo sapiens, UniProt Q13177) in what follows.
pIC50: −log10 of the molar value.

INSERT INTO results (molecule, readout_value) VALUES
  ('CN1CCC(c2ccc(Nc3ncc4cc(-c5ccc(-c6cccnc6F)cc5Cl)c(=O)n(C)c4n3)cc2)CC1', '> 7.30'),
  ('CCn1c(=O)c(-c2ccc(-c3noc(C)n3)cc2Cl)cc2cnc(Nc3ccc(C4CCNC4)cc3)nc21 (centres unmarked)', '> 7.30'),
  ('Cc1ncc(-c2ccc(-c3cc4cnc(Nc5ccc(CCN(C)C)cc5)nc4n(C)c3=O)c(Cl)c2)s1', '> 7.30'),
  ('CCn1c(=O)c(-c2ccc(-c3ccco3)cc2Cl)cc2cnc(Nc3ccc(N4CCN(C)CC4)cc3)nc21', '> 7.30'),
  ('CCn1c(=O)c(-c2ccc(-c3cc(C(F)(F)F)ncn3)cc2Cl)cc2cnc(Nc3ccc(C4CCN(C)CC4)cc3)nc21', '6.30 to 7.30');

IN: Give the observed pIC50 of CCn1c(=O)c(-c2ccc(-c3cccnc3)cc2Cl)cc2cnc(Nc3ccc(C4CCNC4)cc3)nc21 (centres unmarked) for PAK2 (PAK65) (Homo sapiens, UniProt Q13177).
OUT: > 7.30

IN: Specify the recorded pIC50 for "CCn1c(=O)c(-c2ccc(-c3ccc(C)nc3F)cc2Cl)cc2cnc(Nc3ccc(CCN(C)C)cc3)nc21" , system: PAK2 (PAK65) (Homo sapiens, UniProt Q13177).
Sequence (Q13177 whole entry): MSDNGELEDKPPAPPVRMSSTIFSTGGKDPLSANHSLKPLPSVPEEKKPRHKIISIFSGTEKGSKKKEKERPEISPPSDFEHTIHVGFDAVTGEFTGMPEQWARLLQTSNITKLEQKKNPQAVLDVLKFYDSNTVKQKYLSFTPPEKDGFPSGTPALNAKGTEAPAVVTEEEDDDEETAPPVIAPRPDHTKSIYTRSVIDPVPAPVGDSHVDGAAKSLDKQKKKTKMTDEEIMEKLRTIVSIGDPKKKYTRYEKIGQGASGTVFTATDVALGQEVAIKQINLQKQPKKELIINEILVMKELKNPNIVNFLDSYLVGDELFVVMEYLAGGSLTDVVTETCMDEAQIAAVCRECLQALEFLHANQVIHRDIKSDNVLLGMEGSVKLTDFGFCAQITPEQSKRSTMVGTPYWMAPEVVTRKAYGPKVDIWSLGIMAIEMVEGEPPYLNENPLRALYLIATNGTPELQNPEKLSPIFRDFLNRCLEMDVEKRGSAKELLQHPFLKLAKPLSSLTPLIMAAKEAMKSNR
OUT: > 7.30

IN: State measured pIC50 of the molecule "CCn1c(=O)c(-c2ccc(-c3ccc(C)s3)cc2Cl)cc2cnc(Nc3ccc(N4CCN(C)CC4)cc3)nc21" with PAK2 (PAK65) (Homo sapiens, UniProt Q13177).
OUT: > 7.30

IN: For PAK2 (PAK65) (Homo sapiens, UniProt Q13177), give pIC50 of the listed molecule: "CCn1c(=O)c(-c2ccc(-c3noc(C)n3)cc2Cl)cc2cnc(Nc3ccc(C4=CCN(C)CC4)cc3)nc21"
OUT: > 7.30

IN: Using PAK2 (PAK65) (Homo sapiens, UniProt Q13177) as the test system, report measured pIC50 of "CCn1c(=O)c(-c2ccc(-c3cccnc3F)cc2Cl)cc2cnc(Nc3ccc(C4CCN(C)CC4)c(F)c3)nc21" .
OUT: > 7.30

IN: Send back PAK2 (PAK65) (Homo sapiens, UniProt Q13177) pIC50 of "CCn1c(=O)c(-c2ccc(-c3ccoc3)cc2)cc2cnc(Nc3ccc(N4CCN(C)CC4)cc3)nc21" only.
OUT: < 5.30

IN: Print PAK2 (PAK65) (Homo sapiens, UniProt Q13177) pIC50 for "CN1CCC(c2ccc(Nc3ncc4cc(-c5cc(-c6cccnc6)ccc5Cl)c(=O)n(C)c4n3)cc2)CC1" .
OUT: 5.30 to 6.30

IN: Enter measured pIC50, system PAK2 (PAK65) (Homo sapiens, UniProt Q13177), for the molecule shown: "CCn1c(=O)c(-c2ccc(-c3ccc(C)nc3)cc2Cl)cc2cnc(Nc3ccc(C4CCNCC4)cc3)nc21"
OUT: > 7.30

IN: Identify measured pIC50 obtained with PAK2 (PAK65) (Homo sapiens, UniProt Q13177) for "CCN(CC)CCc1ccc(Nc2ncc3cc(-c4ccc(-c5cccnc5F)cc4Cl)c(=O)n(CC)c3n2)cc1" .
OUT: > 7.30

IN: Retrieve pIC50 on PAK2 (PAK65) (Homo sapiens, UniProt Q13177); query "Cc1nc(-c2ccc(Cl)c(-c3cc4cnc(Nc5ccc(C6CCN(C)CC6)cc5)nc4n(C)c3=O)c2)no1"
OUT: 5.30 to 6.30

IN: Give pIC50 for "CCn1c(=O)c(-c2ccc(-c3cnc(C)s3)cc2Cl)cc2cnc(Nc3ccc(CCN(C)C)cc3)nc21" tested on PAK2 (PAK65) (Homo sapiens, UniProt Q13177).
OUT: > 7.30

IN: Please report pIC50 with PAK2 (PAK65) (Homo sapiens, UniProt Q13177) for item "CC(=O)N(C)c1cc(-c2cc3cnc(Nc4ccc(CCN(C)C)cc4)nc3n(C)c2=O)c(Cl)cc1-c1cccnc1" .
OUT: 6.30 to 7.30
